# Tested system: hERG (KCNH2) (Homo sapiens, UniProt Q12809)
# Sequence (Q12809 whole entry): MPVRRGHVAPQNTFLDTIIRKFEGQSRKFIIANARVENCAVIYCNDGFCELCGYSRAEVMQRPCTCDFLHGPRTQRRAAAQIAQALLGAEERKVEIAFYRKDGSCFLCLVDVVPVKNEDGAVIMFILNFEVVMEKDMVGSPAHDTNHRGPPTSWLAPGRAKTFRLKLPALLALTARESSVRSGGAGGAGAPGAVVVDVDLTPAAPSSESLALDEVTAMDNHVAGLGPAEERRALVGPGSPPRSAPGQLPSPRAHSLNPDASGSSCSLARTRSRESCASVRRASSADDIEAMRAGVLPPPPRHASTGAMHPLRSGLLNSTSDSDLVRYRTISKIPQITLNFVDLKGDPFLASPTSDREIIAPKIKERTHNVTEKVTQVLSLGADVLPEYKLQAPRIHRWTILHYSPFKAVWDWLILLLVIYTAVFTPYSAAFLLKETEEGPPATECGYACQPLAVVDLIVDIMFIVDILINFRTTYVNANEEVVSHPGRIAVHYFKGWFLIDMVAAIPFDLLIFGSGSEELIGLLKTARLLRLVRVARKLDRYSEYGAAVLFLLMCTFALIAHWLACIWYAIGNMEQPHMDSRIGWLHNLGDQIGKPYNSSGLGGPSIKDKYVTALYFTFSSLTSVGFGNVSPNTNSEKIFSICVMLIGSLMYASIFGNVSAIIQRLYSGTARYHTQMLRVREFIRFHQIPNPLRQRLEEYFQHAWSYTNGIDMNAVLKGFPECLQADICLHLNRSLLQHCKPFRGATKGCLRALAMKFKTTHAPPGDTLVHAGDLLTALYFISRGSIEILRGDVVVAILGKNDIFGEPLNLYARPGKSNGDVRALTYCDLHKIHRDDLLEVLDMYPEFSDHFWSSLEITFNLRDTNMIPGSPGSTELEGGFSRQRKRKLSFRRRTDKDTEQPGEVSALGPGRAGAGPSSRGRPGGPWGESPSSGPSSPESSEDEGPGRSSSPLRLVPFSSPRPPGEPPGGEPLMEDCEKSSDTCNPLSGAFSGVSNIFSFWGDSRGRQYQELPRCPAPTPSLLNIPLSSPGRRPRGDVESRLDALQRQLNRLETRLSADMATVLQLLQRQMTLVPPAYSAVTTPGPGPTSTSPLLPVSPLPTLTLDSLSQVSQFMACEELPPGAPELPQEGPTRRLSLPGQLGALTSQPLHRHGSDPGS
# Procedure details: Inhibition of human ERG expressed in CHO cells at 40 uM relative to control
# Assay type: toxicity, cell-based
# Condition notes: CHO cells that express human ERG
Measured inhibition at 40 µM, listed per entry.
Quantity name: inhibition at 40 µM (%)

compound="COc1cc(N)c(Cl)cc1C(=O)NC1CCN(CCCOc2ccc(F)cc2)CC1OC (stereo not drawn) [CISAPRIDE]" quantity_name="inhibition at 40 µM" readout_unit=% reported=98.7
compound=C=C1C(=O)[C@]23[C@H](O)[C@H]1CC[C@H]2[C@]12C=CCC(C)(C)[C@H]1[C@H](O)[C@@]3(OCCC(=O)O)OC2 quantity_name="inhibition at 40 µM" readout_unit=% reported=22
compound=C=C1C(=O)[C@]23[C@H](O)[C@H]1CC[C@H]2[C@]12C=CCC(C)(C)[C@H]1[C@H](O)[C@@]3(OCc1cncs1)OC2 quantity_name="inhibition at 40 µM" readout_unit=% reported=43.3

---

# Procedure details: Stability in human plasma assessed as half life measured upto 8 hrs
# Format: ADME, cell-free
Quantity name: half-life (h)

molecular_string=C=C1C(=O)[C@]23[C@H](O)[C@H]1CC[C@H]2[C@]12C=CCC(C)(C)[C@H]1[C@H](O)[C@@]3(OCc1cncs1)OC2 reported=5.99
molecular_string=C=C1C(=O)[C@]23[C@H](O)[C@H]1CC[C@H]2[C@]12C=CCC(C)(C)[C@H]1[C@H](O)[C@@]3(OCCC(=O)O)OC2 reported=6.92

---

# Procedure details: Oral bioavailability in ICR mouse at 10 mg/kg measured upto 24 hrs by LC-MS/MS method
# Assay type: ADME, organism-based
# Condition notes: ICR, in vivo
Quantity name: bioavailability (%)

molecular_string=C=C1C(=O)[C@]23[C@H](O)[C@H]1CC[C@H]2[C@]12C=CCC(C)(C)[C@H]1[C@H](O)[C@@]3(OCc1cncs1)OC2 reported=0.64

---

Measured clearance, listed per entry.
# Procedure details: Clearance in ICR mouse at 1 mg/kg, iv measured upto 24 hrs by LC-MS/MS method
# Format: ADME, organism-based
# Condition notes: in vivo
Quantity name: clearance (L/h/kg)

molecular_string=C=C1C(=O)[C@]23[C@H](O)[C@H]1CC[C@H]2[C@]12C=CCC(C)(C)[C@H]1[C@H](O)[C@@]3(OCc1cncs1)OC2 quantity_name=clearance readout_unit=L/h/kg reported=2.95
molecular_string=C=C1C(=O)[C@]23[C@H](O)[C@H]1CC[C@H]2[C@]12C=CCC(C)(C)[C@H]1[C@H](O)[C@@]3(OCCC(=O)O)OC2 quantity_name=clearance readout_unit=L/h/kg reported=4.15

---

Measured inhibition, listed per entry.
# Tested system: NACHT, LRR and PYD domains-containing protein 3 (Mus musculus) (UniProt Q8R4B8)
# Sequence (Q8R4B8 whole entry, the tested form may be a part): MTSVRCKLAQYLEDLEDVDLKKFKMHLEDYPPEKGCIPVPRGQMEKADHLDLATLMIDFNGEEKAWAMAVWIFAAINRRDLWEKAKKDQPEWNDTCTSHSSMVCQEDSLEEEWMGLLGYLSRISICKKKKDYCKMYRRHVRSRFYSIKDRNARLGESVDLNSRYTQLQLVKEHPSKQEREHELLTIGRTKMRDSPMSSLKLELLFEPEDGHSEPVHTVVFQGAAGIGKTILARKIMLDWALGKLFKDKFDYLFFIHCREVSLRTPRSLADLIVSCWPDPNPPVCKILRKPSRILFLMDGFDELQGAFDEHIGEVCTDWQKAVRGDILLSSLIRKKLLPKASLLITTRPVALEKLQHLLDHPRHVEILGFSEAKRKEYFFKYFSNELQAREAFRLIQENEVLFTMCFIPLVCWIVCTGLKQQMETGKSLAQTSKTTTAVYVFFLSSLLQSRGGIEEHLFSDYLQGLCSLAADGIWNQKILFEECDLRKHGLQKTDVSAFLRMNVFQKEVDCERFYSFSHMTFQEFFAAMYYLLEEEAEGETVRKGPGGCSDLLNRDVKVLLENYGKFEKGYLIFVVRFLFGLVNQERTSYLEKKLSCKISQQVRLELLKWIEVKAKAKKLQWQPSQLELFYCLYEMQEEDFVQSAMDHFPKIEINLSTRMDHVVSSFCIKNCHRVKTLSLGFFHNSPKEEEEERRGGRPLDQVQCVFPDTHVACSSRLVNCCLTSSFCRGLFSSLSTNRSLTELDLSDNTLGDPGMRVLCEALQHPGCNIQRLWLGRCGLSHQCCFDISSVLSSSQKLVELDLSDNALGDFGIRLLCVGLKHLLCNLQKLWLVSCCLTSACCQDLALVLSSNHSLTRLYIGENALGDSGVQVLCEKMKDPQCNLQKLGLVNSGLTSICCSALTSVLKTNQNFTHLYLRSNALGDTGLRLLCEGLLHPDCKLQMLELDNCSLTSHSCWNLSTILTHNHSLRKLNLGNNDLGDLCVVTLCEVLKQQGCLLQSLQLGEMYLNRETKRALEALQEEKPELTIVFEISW
# Procedure details: Inhibition of NLRP3 inflammasome activation in LPS/ATP-induced C57BL/6 mouse BMDMs assessed as reduction in IL-1beta secretion at 100 nM preincubated with LPS for 4 hrs followed by compound addition for 30 mins and further stimulated with ATP for 30 mins by ELISA relative to control
# Assay type: cell-based
# Condition notes: BMDM, time 1.0 hrs
Quantity name: inhibition (%)

molecular_string=C=C1C(=O)[C@]23[C@H](O)[C@H]1CC[C@H]2[C@]12C=CCC(C)(C)[C@H]1[C@H](O)[C@@]3(OCC)OC2 reported=31.3
molecular_string=C=C1C(=O)[C@]23[C@H](O)[C@H]1CC[C@H]2[C@]12C=CCC(C)(C)[C@H]1[C@H](O)[C@@]3(OCCC(=O)NC1CCCC1)OC2 reported=42.3
molecular_string=C=C1C(=O)[C@]23[C@H](O)[C@H]1CC[C@H]2[C@]12C=CCC(C)(C)[C@H]1[C@H](O)[C@@]3(OCc1cnco1)OC2 reported=50.6

---

# Tested system: NACHT, LRR and PYD domains-containing protein 3 (Mus musculus) (UniProt Q8R4B8)
# Procedure details: Inhibition of NLRP3 inflammasome activation in LPS/ATP-induced C57BL/6 mouse BMDMs assessed as reduction in IL-1beta secretion at 500 nM preincubated with LPS for 4 hrs followed by compound addition for 30 mins and further stimulated with ATP for 30 mins by ELISA relative to control
# Type: cell-based
# Condition notes: BMDM, time 1.0 hrs
Measured inhibition, listed per entry.
Quantity name: inhibition (%)

molecular_string=C=C1C(=O)[C@]23[C@H](O)[C@H]1CC[C@H]2[C@]12C=CCC(C)(C)[C@H]1[C@H](O)[C@@]3(OCc1cocn1)OC2 quantity_name=inhibition reported=96.5
molecular_string=C=C1C(=O)[C@]23[C@H](O)[C@H]1CC[C@H]2[C@]12C=CCC(C)(C)[C@H]1[C@H](O)[C@@]3(O)OC2 quantity_name=inhibition reported=64.3
molecular_string=C=C1C(=O)[C@]23[C@H](O)[C@H]1CC[C@H]2[C@]12C=CCC(C)(C)[C@H]1[C@H](O)[C@@]3(OCc1ccc(Cl)cc1)OC2 quantity_name=inhibition reported=75.5
molecular_string=C=C1C(=O)[C@]23[C@H](O)[C@H]1CC[C@H]2[C@]12C=CCC(C)(C)[C@H]1[C@H](O)[C@@]3(OCCCc1ccccc1)OC2 quantity_name=inhibition reported=66.6

---

# Tested system: NACHT, LRR and PYD domains-containing protein 3 (Mus musculus) (UniProt Q8R4B8)
# Procedure details: Inhibition of NLRP3 inflammasome activation in LPS/ATP-induced C57BL/6 mouse BMDMs assessed as reduction in IL-1beta secretion at 100 nM preincubated with LPS for 4 hrs followed by compound addition for 30 mins and further stimulated with ATP for 30 mins by ELISA relative to control
# Assay type: cell-based
# Condition notes: BMDM, time 1.0 hrs
Quantity name: inhibition

molecular_string=C=C1C(=O)[C@]23[C@H](O)[C@H]1CC[C@H]2[C@]12C=CCC(C)(C)[C@H]1[C@H](O)[C@@]3(OCCCCCc1ccccc1)OC2 reported=13.3%
molecular_string=C=C1C(=O)[C@]23[C@H](O)[C@H]1CC[C@H]2[C@]12C=CCC(C)(C)[C@H]1[C@H](O)[C@@]3(OCc1ccc(C#N)cc1)OC2 reported=38.8%
molecular_string=C=C1C(=O)[C@]23[C@H](O)[C@H]1CC[C@H]2[C@]12C=CCC(C)(C)[C@H]1[C@H](O)[C@@]3(OCc1cncs1)OC2 reported=77.3%
molecular_string=C=C1C(=O)[C@]23[C@H](O)[C@H]1CC[C@H]2[C@]12C=CCC(C)(C)[C@H]1[C@H](O)[C@@]3(OCCC(=O)N(C)C)OC2 reported=56.7%
molecular_string=C=C1C(=O)[C@]23[C@H](O)[C@H]1CC[C@H]2[C@]12C=CCC(C)(C)[C@H]1[C@H](O)[C@@]3(OCCC(=O)N1CCOCC1)OC2 reported=62.7%
molecular_string=C=C1C(=O)[C@]23[C@H](O)[C@H]1CC[C@H]2[C@]12C=CCC(C)(C)[C@H]1[C@H](O)[C@@]3(OCCC(=O)N1CCCC1)OC2 reported=36.4%

---

# Procedure details: Half-life in ICR mouse at 10 mg/kg, po measured upto 24 hrs by LC-MS/MS method
# Format: ADME, organism-based
# Condition notes: in vivo
Quantity name: half-life

molecular_string=C=C1C(=O)[C@]23[C@H](O)[C@H]1CC[C@H]2[C@]12C=CCC(C)(C)[C@H]1[C@H](O)[C@@]3(OCc1cncs1)OC2 reported="1.36 h"
molecular_string=C=C1C(=O)[C@]23[C@H](O)[C@H]1CC[C@H]2[C@]12C=CCC(C)(C)[C@H]1[C@H](O)[C@@]3(OCCC(=O)O)OC2 reported="1.6 h"

---

# Tested system: NACHT, LRR and PYD domains-containing protein 3 (Mus musculus) (UniProt Q8R4B8)
# Procedure details: Inhibition of NLRP3 inflammasome activation in LPS/ATP-induced C57BL/6 mouse BMDMs assessed as reduction in IL-1beta secretion at 500 nM preincubated with LPS for 4 hrs followed by compound addition for 30 mins and further stimulated with ATP for 30 mins by ELISA relative to control
# Format: cell-based
# Condition notes: BMDM, time 1.0 hrs
Measured inhibition, listed per entry.
Quantity name: inhibition

molecular_string=C=C1C(=O)[C@]23[C@H](O)[C@H]1CC[C@H]2[C@]12C=CCC(C)(C)[C@H]1[C@H](O)[C@@]3(OCc1cnco1)OC2 tested_system="NACHT, LRR and PYD domains-containing protein 3 (Mus musculus) (UniProt Q8R4B8)" quantity_name=inhibition reported=89.5%
molecular_string=C=C1C(=O)[C@]23[C@H](O)[C@H]1CC[C@H]2[C@]12C=CCC(C)(C)[C@H]1[C@H](O)[C@@]3(OCCC(=O)N1CCOCC1)OC2 tested_system="NACHT, LRR and PYD domains-containing protein 3 (Mus musculus) (UniProt Q8R4B8)" quantity_name=inhibition reported=95.1%
molecular_string=C=C1C(=O)[C@]23[C@H](O)[C@H]1CC[C@H]2[C@]12C=CCC(C)(C)[C@H]1[C@H](O)[C@@]3(OCCC(=O)N1CCN(C)CC1)OC2 tested_system="NACHT, LRR and PYD domains-containing protein 3 (Mus musculus) (UniProt Q8R4B8)" quantity_name=inhibition reported=85.3%
molecular_string=C=C1C(=O)[C@]23[C@H](OCc4ccc5ccccc5c4)[C@H]1CC[C@H]2[C@]12C=CCC(C)(C)[C@H]1[C@H](O)[C@@]3(O)OC2 tested_system="NACHT, LRR and PYD domains-containing protein 3 (Mus musculus) (UniProt Q8R4B8)" quantity_name=inhibition reported=71.4%
molecular_string=C=C1C(=O)[C@]23[C@H](O)[C@H]1CC[C@H]2[C@]12C=CCC(C)(C)[C@H]1[C@H](O)[C@@]3(OCCC(=O)N(CCC)CCC)OC2 tested_system="NACHT, LRR and PYD domains-containing protein 3 (Mus musculus) (UniProt Q8R4B8)" quantity_name=inhibition reported=71.6%
molecular_string=C=C1C(=O)[C@]23[C@H](O)[C@H]1CC[C@H]2[C@]12C=CCC(C)(C)[C@H]1[C@H](O)[C@@]3(OCc1ccccc1)OC2 tested_system="NACHT, LRR and PYD domains-containing protein 3 (Mus musculus) (UniProt Q8R4B8)" quantity_name=inhibition reported=88.1%
